condition_details: in MIBK, 318.2 K
reported_property: solubility (mole fraction)
Please give the numeric answer without any surrounding text.

Sample `C[C@H]1[C@H](C)CC[C@]2(C(=O)O)CC[C@]3(C)C(=CC[C@@H]4[C@@]5(C)CC[C@H](O)C(C)(C)[C@@H]5CC[C@]43C)[C@H]12` — what was its solubility (mole fraction)? 0.00184

###

condition_details: in MTBE, 303.2 K
reported_property: solubility (mole fraction)

Sample `C[C@H]1[C@H](C)CC[C@]2(C(=O)O)CC[C@]3(C)C(=CC[C@@H]4[C@@]5(C)CC[C@H](O)C(C)(C)[C@@H]5CC[C@]43C)[C@H]12` — what was its solubility (mole fraction)? 0.00305

###

condition_details: in MIBK, 313.2 K
reported_property: solubility (mole fraction)
Please give the numeric answer without any surrounding text.

Sample `C[C@H]1[C@H](C)CC[C@]2(C(=O)O)CC[C@]3(C)C(=CC[C@@H]4[C@@]5(C)CC[C@H](O)C(C)(C)[C@@H]5CC[C@]43C)[C@H]12` — what was its solubility (mole fraction)? 0.00169

###

condition_details: in MIBK, 293.2 K
reported_property: solubility (mole fraction)
Please give the numeric answer without any surrounding text.

Sample `C[C@H]1[C@H](C)CC[C@]2(C(=O)O)CC[C@]3(C)C(=CC[C@@H]4[C@@]5(C)CC[C@H](O)C(C)(C)[C@@H]5CC[C@]43C)[C@H]12` — what was its solubility (mole fraction)? 0.00109

###

condition_details: in n-butanol, 313.2 K
reported_property: solubility (mole fraction)
Please give the numeric answer without any surrounding text.

Sample `C[C@H]1[C@H](C)CC[C@]2(C(=O)O)CC[C@]3(C)C(=CC[C@@H]4[C@@]5(C)CC[C@H](O)C(C)(C)[C@@H]5CC[C@]43C)[C@H]12` — what was its solubility (mole fraction)? 0.00466

###

condition_details: in MIBK, 278.2 K
reported_property: solubility (mole fraction)
Please give the numeric answer without any surrounding text.

Sample `C[C@H]1[C@H](C)CC[C@]2(C(=O)O)CC[C@]3(C)C(=CC[C@@H]4[C@@]5(C)CC[C@H](O)C(C)(C)[C@@H]5CC[C@]43C)[C@H]12` — what was its solubility (mole fraction)? 0.00094

###

condition_details: in MIBK, 308.2 K
reported_property: solubility (mole fraction)
Please give the numeric answer without any surrounding text.

Sample `C[C@H]1[C@H](C)CC[C@]2(C(=O)O)CC[C@]3(C)C(=CC[C@@H]4[C@@]5(C)CC[C@H](O)C(C)(C)[C@@H]5CC[C@]43C)[C@H]12` — what was its solubility (mole fraction)? 0.0015

###

condition_details: in MIBK, 298.2 K
reported_property: solubility (mole fraction)
Please give the numeric answer without any surrounding text.

Sample `C[C@H]1[C@H](C)CC[C@]2(C(=O)O)CC[C@]3(C)C(=CC[C@@H]4[C@@]5(C)CC[C@H](O)C(C)(C)[C@@H]5CC[C@]43C)[C@H]12` — what was its solubility (mole fraction)? 0.00127

###

condition_details: in n-butanol, 308.2 K
reported_property: solubility (mole fraction)
Please give the numeric answer without any surrounding text.

Sample `C[C@H]1[C@H](C)CC[C@]2(C(=O)O)CC[C@]3(C)C(=CC[C@@H]4[C@@]5(C)CC[C@H](O)C(C)(C)[C@@H]5CC[C@]43C)[C@H]12` — what was its solubility (mole fraction)? 0.00411
